# System: E. coli (ATCC 25922)
# assay.info: Minimum inhibitory concentration, broth microdilution
# condition.description: Escherichia coli, ATCC25922, read-out: Minimum Inhibitory Concentration E. coli, Tables 3a-3c
reported.property: MIC (µM)
One number for each entry, in µM.

Worked cases, answers included:
# record.smiles, reported.property, result.value
data = [
    ("N=C(N)Nc1nc(-c2ccccc2)c2cc(Cl)ccc2n1", "MIC", 50),
    ("O=C(Nc1cccc(C2=NCCN2)c1)Nc1cccc(C2=NCCN2)c1", "MIC", 200),
    ("CCn1c(N)[n+](CC(=O)Nc2ccc(SC(F)F)cc2)c2ccccc21.[Cl-]", "MIC", 200),
]

# context switch: different compound, same MIC
Short answer for "COc1cc2ccccc2cc1C(=O)NC(=S)Nc1ccc(C(=O)O)cc1" : MIC was 100

----------
Record form. Attribute: log10(IC50). Fill in for each entry.
# target.of.assay: Mtb DNA gyrase (Mycobacterium tuberculosis (strain ATCC 25618 / H37Rv), UniProt P9WG45+P9WG47)
# assay.info: Mtb DNA gyrase inhibition assay (gel-based)
# Assay type: biochemical
# condition.description: Table 10; read-out: IC50 (µM) Mtb gyrase
Answers are given as log10 of IC50 in µM.

Worked cases, answers included:
# record.smiles, log10(IC50)
rows = [
    ("C[n+]1c(-c2ccc(/C=N/NC(=O)c3cncc(C(=O)N/N=C/c4ccc(-c5cn6ccccc6[n+]5C)cc4)c3)cc2)cn2ccccc21", 1.96),
    ("C[n+]1c(-c2ccc(/C=N/NC(=O)c3ccc(C(=O)N/N=C/c4ccc(-c5cn6ccccc6[n+]5C)cc4)nc3)cc2)cn2ccccc21", 0.32),
    ("C[n+]1c(-c2ccc(NC(=O)c3ccc(C(=O)Nc4ccc(-c5cn6ccccc6[n+]5C)cc4)cc3)cc2)cn2ccccc21", 0.89),
    ("CCCCSc1ccn2cc(-c3ccc(/C=N/NC(=O)c4ccc(C(=O)N/N=C/c5ccc(-c6cn7ccc(SCCCC)cc7[n+]6C)cc5)cc4)cc3)[n+](C)c2c1", 2.07),
]

Quick batch: log10(IC50) for everything below.
1. C[n+]1c(-c2ccc(/C=C/C=N/NC(=O)c3ccc(C(=O)N/N=C/c4ccc(-c5cn6ccccc6[n+]5C)cc4)cc3)cc2)cn2ccccc21
2. C[n+]1c(-c2ccc(/C=N/NC(=O)c3cccc(C(=O)N/N=C/c4ccc(-c5cn6ccccc6[n+]5C)cc4)c3)cc2)cn2ccccc21

[0.97, 0.41]

----------
Record form. Attribute: MIC. Fill in for each entry.
# System: E. coli (ATCC 25922)
# assay.info: Minimum inhibitory concentration, broth microdilution
# condition.description: Escherichia coli, ATCC25922, read-out: MIC (µM) Ec, E. coli strain ATCC25922

Worked cases, answers included:
# record.smiles, reported.property, result.value
data = [
    ("CCCCSc1ccn2cc(-c3ccc(/C=N/NC(=O)c4ccc(C(=O)N/N=C/c5ccc(-c6cn7ccc(SCCCC)cc7[n+]6C)cc5)cc4)cc3)[n+](C)c2c1", "MIC", "> 200 µM"),
    ("C[n+]1c(-c2ccc(C=NNC(=O)c3ccc(C(=O)NN=Cc4ccc(-c5cn6ccccc6[n+]5C)cc4)cc3)cc2)cn2ccccc21", "MIC", "6.25 to 12.5 µM"),
]

Quick batch: MIC for everything below.
1. C[n+]1c(-c2ccc(/C=C/C=N/NC(=O)c3ccc(C(=O)N/N=C/c4ccc(-c5cn6ccccc6[n+]5C)cc4)cc3)cc2)cn2ccccc21
2. C[n+]1c(-c2ccc(/C=N/NC(=O)c3cccc(C(=O)N/N=C/c4ccc(-c5cn6ccccc6[n+]5C)cc4)c3)cc2)cn2ccccc21
3. C[n+]1c(-c2ccc(/C=N/NC(=O)c3cncc(C(=O)N/N=C/c4ccc(-c5cn6ccccc6[n+]5C)cc4)c3)cc2)cn2ccccc21

50 µM
> 200 µM
> 200 µM

----------
# target.of.assay: E. coli DNA gyrase (Escherichia coli (strain K12), UniProt P0AES4+P0AES6)
# assay.info: biochemical
# Type: biochemical
# condition.description: IC50 against E. coli DNA gyrase
reported.property: IC50 (µM)
One number for each entry, in µM.

Worked cases, answers included:
# compound, IC50 (µM)
records = [
    ("N=C(N)Nc1nc(-c2ccccc2)c2cc(Cl)ccc2n1", 7),
    ("CC(OC(=O)c1cc(O)c2ccccc2c1O)C(=O)Nc1ccc(C(N)=O)cc1 (centres unmarked)", 50),
]

# context switch: different compound, same IC50
Short answer for CNC(=O)[C@H]1O[C@@H](n2cnc3c(NCc4cccc(I)c4)nc(Cl)nc32)[C@H](O)[C@@H]1O [chloro-IB-MECA, reference compound] : IC50 was 2.4

----------
# target.of.assay: Mtb DNA gyrase (Mycobacterium tuberculosis (strain ATCC 25618 / H37Rv), UniProt P9WG45+P9WG47)
# assay.info: Mtb DNA gyrase inhibition assay (gel-based)
# Assay type: biochemical
# condition.description: Table 5, Mtb gyrase; read-out: IC50 (µM) Mtb
Record form. Attribute: IC50. Fill in for each entry.

Worked cases, answers included:
# record.smiles, result.value
rows = [
    ("Cc1coc2cc3oc(=O)c(CCC(=O)O)c(C)c3cc12", "> 200 µM"),
    ("Cc1c(CCC(=O)O)c(=O)oc2c(C)c3occ(-c4ccccc4)c3cc12", "58 µM"),
    ("Cc1c(CCC(=O)O)c(=O)oc2c(C)c3occ(-c4ccc(F)cc4)c3cc12", "34 µM"),
    ("Cc1c(CCC(=O)O)c(=O)oc2c(C)c3occ(-c4ccc(Cl)cc4)c3cc12", "33 µM"),
    ("Cc1c(C)c2cc3c(-c4ccc(Br)cc4)coc3c(C)c2oc1=O", "> 200 µM"),
]

Short answer for "Cc1c(CCC(=O)O)c(=O)oc2c(C)c3occ(-c4ccc(Br)cc4)c3cc12" : IC50 was 57 µM

----------
# Test system: MRSA
# assay.info: Minimum inhibitory concentration, broth microdilution
# condition.description: Staphylococcus aureus, MRSA, read-out: Minimum Inhibitory Concentration S.aureus MRSA
Criterion: MIC strictly under 50 µM. Met: met. Not met: not met.

Some solved entries appear below for comparison.
# record.smiles, assigned.class
measured = [
    ("Cc1c(CCC(=O)O)c(=O)oc2c(C)c3occ(-c4ccc(-c5ccccc5)cc4)c3cc12", "met"),
    ("CN1C[C@H](CNC(=O)OCc2ccccc2)C[C@@H]2c3cccc4c3c(cn4C)C[C@H]21", "not met"),
    ("CNc1nnc(-c2ccc(C)cc2)c2ccccc12", "not met"),
]

Okay, now this compound:
In plain terms, does "Cc1c(CCC(=O)O)c(=O)oc2c(C)c3occ(-c4ccc(F)cc4)c3cc12" come in under 50 µM for MIC?
met

Where these numbers come from: patent US20230364057A1
